Data provenance: PubChem BioAssay

Molecular target: Alpha-bungarotoxin (Bungarus multicinctus)
Test: alpha-bungarotoxin binders on microarray, profiling panel, artefact control for SMM control protein annotation, biochemical, small-molecule microarray, Alexa647 label, 635/667 nm fluorescence (AID 1117)
Conditions: alpha-BTX-A647 binding fluorescence, higher = more signal
propertyLabel: composite z-score
Lab note: write the figure by itself, no unit.

Use the examples below as a reference point.
C[N+](C)(C)CCCC[C@@H]1NC(=O)[C@H]2C[C@@H](C(=O)O)[C@@H](c3ccc(O)cc3)N2C1=O    0.343
COc1ccc(C(O)C2C=CC3C(=O)N(c4ccccc4)C(=O)C3N2Nc2ccccc2F)c2ccccc12 (configuration not stated)    2.12
CO[C@H]1O[C@H](CO)[C@@H](OC(=O)CCc2ccccc2)[C@@H]2OC(=O)[C@@H](Cc3ccc4ccccc4c3)C/C=C/C[C@H](Cc3ccc4ccccc4c3)C(=O)O[C@@H]12    1.33
CCOC(=O)C1=C[C@@H](C(C)(C)C)N(S(=O)(=O)c2ccc(C)cc2)[C@H]1c1ccc(OC)cc1    1.14

Report its composite z-score with Alpha-bungarotoxin (Bungarus multicinctus) as the test system: N#Cc1ccc(NN2C(C(O)c3ccc(B(O)O)cc3)C=CC3CN(c4ccccc4)C(=O)C32)cc1 (configuration not stated)
-0.0348

Report its composite z-score with Alpha-bungarotoxin (Bungarus multicinctus) as the test system: CC(C)(C)OC(=O)CC[C@@]1(C(=O)N2CCOCC2)N=C(c2ccc(OCCCO)cc2)O[C@@H]1c1ccccc1CN=[N+]=[N-]
0.986

Report its composite z-score with Alpha-bungarotoxin (Bungarus multicinctus) as the test system: CC(C)C[C@@H]1NC(=O)[C@@H]2C[C@H](C(=O)NCCCCCNC(=O)CS)[C@H](c3ccc(O)cc3)N2C1=O
0.136

Report its composite z-score with Alpha-bungarotoxin (Bungarus multicinctus) as the test system: COc1cc(CO)cc(I)c1O[C@H]1C=C(C(=O)NCCO)C[C@@H](N(CCN2CCOCC2)C(=O)C2CCCO2)[C@@H]1O (some centres not stated)
-0.197

Report its composite z-score with Alpha-bungarotoxin (Bungarus multicinctus) as the test system: COCCCNC(=O)[C@@]1(Cc2ccccc2I)c2ccccc2C(=O)N(Cc2ccccc2C(F)(F)F)[C@H]1c1ccc(CO)cc1
-0.458

Report its composite z-score with Alpha-bungarotoxin (Bungarus multicinctus) as the test system: COc1ccc([Si](C)(C)[C@@H]2[C@@H](CC(=O)N3CCC[C@H]3CO)O[C@]3(C(=O)N(Cc4cccc(N5C(=O)c6cccc7cccc5c67)c4)c4ccccc43)[C@H]2C)cc1
0.669

Report its composite z-score with Alpha-bungarotoxin (Bungarus multicinctus) as the test system: COC(=O)[C@@]1(Cc2ccc(F)cc2)[C@H]2c3cc(C(=O)N(C)C)n(Cc4cccc5ccccc45)c3C[C@H]2CN1C(=O)c1ccccc1
-0.145

Report its composite z-score with Alpha-bungarotoxin (Bungarus multicinctus) as the test system: [N-]=[N+]=Nc1ccccc1C[C@]1(C(N)=O)COC(c2ccc(OCCCO)cc2)=N1
-0.364

---

Molecular target: NADPH oxidase 2 (Homo sapiens) (UniProt P04839)
Sequence (P04839 whole entry, looked up): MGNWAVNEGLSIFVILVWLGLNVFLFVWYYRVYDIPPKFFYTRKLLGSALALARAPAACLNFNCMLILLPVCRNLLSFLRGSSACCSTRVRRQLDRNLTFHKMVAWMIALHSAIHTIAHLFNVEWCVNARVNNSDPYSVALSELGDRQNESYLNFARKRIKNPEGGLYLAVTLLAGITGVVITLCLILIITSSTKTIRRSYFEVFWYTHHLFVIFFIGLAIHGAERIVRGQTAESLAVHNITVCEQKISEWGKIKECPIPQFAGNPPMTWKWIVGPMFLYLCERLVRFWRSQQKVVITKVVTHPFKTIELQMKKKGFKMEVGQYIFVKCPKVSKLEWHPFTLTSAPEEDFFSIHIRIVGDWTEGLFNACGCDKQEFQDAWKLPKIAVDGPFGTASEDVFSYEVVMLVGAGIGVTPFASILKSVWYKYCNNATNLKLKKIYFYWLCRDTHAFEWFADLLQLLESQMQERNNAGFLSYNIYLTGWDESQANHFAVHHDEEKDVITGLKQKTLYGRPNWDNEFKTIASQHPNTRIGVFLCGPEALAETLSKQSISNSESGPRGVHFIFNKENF
Test: NOX2-dependent H2O2 signal modulators, primary screen, NOX inhibitor project, cell-based, HEK293-NOX2, PMA-stimulated, Amplex Red fluorescence (AID 1159); also: test concentration not given here
Conditions: 45 min, higher = more signal, called active from +8 up or from −8 down
propertyLabel: z-score
Lab note: write the figure by itself, no unit.

[N-]=[N+]=NCc1ccccc1C[C@@]1(C(=O)NCCN2CCOCC2)N=C(c2ccc(OCCCO)cc2)O[C@@H]1c1ccccc1    -1.48
O=C1O[C@H](c2ccccc2)[C@H](c2ccccc2)N2[C@H]1[C@@H](C(=O)O)[C@]1(C(=O)Nc3ccccc31)[C@H]2c1ccc(OCCO)cc1    0.388

Report z-score, nothing else, for this compound: COC(=O)C[C@H]1O[C@]2(C(=O)N(C)c3ccccc32)[C@@H](C)[C@@H]1[Si](C)(C)c1ccccc1
0.767

Report z-score, nothing else, for this compound: C=CCNC(=O)[C@H]1[C@@H]2C(=O)O[C@@H](c3ccccc3)[C@@H](c3ccccc3)N2[C@@H](c2ccc(OCCO)cc2)[C@]12C(=O)N(C(=O)OCCOC)c1ccc(C#CCC(C(=O)OC)C(=O)OC)cc12
1.64
